The molecules listed here are annotated with their % Dose Remaining (liver, 24 h).
Assay: Lipid clearance: % dose remaining, Tables 7c and 8b-8e (species not given)
Assay type: in vivo
Conditions: Table 8c
Text: In contrast, hEPO expression in rats induced by administration of a nanoparticle composition including a compound according to one of formulae (I), (Ia1)-(Ia6), (Ib), (II), (IIa), (III), and (IIIa) was substantially […] than that measured for MC3. […] Tables 7c and 7d show additional protein expressions and clearance data from compositions with various compounds disclosed herein as compared to with MC3. Tables 7e, 7f and 7g show hEPO expression data in CD-1 mice at a dose of 0.5 mpk.

MOLECULE | MEASURE_UNIT | % Dose Remaining (liver, 24 h)
CCCCCCCCCN(CCCCCCCCC)CCN(CCCCCCCCC)CCOC(=O)CCCCCCCC [Compound 168] | % | 2.74
CCCCCCCCCCCCCCNC(=O)CN(CCCCCCCCC)CCN(CCCCCCCCC)CCCCCCCCC [Compound 163] | % | 65.12
CCCCCCCCCCCCCCOC(=O)CN(CCCCCCCCC)CCN(CCCCCCCCC)CCCCCCCCC [Compound 167] | % | 89.60
CCCCCCCCCN(CCCCCCCCC)CCN(CCCCCCCCC)CC(=O)NCCCCOC(=O)CCCC [Compound 165] | % | 0.13

---

List of EE (%) values.
Experiment: Encapsulation efficiency of RNA (QUANT-IT RIBOGREEN RNA assay)
Type: physicochemical
Details: Table 1f, Formulated with lipid:Chol:DOPE:PEG 1 40:38.5:20:1.5
Text: For nanoparticle compositions including an RNA, a QUANT-IT™ RIBOGREEN® RNA assay (Invitrogen Corporation Carlsbad, CA) can be used to evaluate the encapsulation of an RNA by the nanoparticle composition. […] The fluorescence intensity can be measured using a fluorescence plate reader (Wallac Victor 1420 Multilablel Counter; Perkin Elmer, Waltham, MA) at an excitation wavelength of, for example, about 480 nm and an emission wavelength of, for example, about 520 nm. […]

COMPOUND | MEASURE_UNIT | EE (%)
CCCCCCCCCN(CCCCCCCCC)CCN(CCCCCCCCC)CC(=O)OC(C)C(C)OC(=O)CN(CCCCCCCCC)CCCCCCCCC (stereo not shown) | % | 97.5
CCCCCCCCCOC(=O)CCCCCCCN(CCCCCCCC(=O)OC(CCCCCCCC)CCCCCCCC)CCCCC(=O)OCCOC(=O)CCCCN(CCCCCCCC(=O)OCCCCCCCCC)CCCCCCCC(=O)OC(CCCCCCCC)CCCCCCCC | % | 98.6
CCCCCCCCCOC(=O)CCCCCCCN(CCCCCCCC(=O)OC(CCCCCCCC)CCCCCCCC)CCCCC(=O)N(C)CCN(C)C(=O)CCCCN(CCCCCCCC(=O)OCCCCCCCCC)CCCCCCCC(=O)OC(CCCCCCCC)CCCCCCCC | % | 99.1
CCCCCCCCCOC(=O)CCCCCCCN(CCCCCCCC(=O)OC(CCCCCCCC)CCCCCCCC)CCCCC(=O)N(C)CCCN(C)C(=O)CCCCN(CCCCCCCC(=O)OCCCCCCCCC)CCCCCCCC(=O)OC(CCCCCCCC)CCCCCCCC | % | 98.8

---

assay: pKa of nanoparticle compositions; format: physicochemical; settings: Table 1c
VALUE_TYPE: pKa

COMPOUND | VALUE_TYPE | ASSAY_VALUE
CCCCCCCCCCCCCCN(CCCOC(=O)CCCCCCCCC)CC(=O)N1CCN(C(=O)CN(CCCCCCCCC)CCN(CCCCCCCCC)CCCCCCCCC)CC1 | pKa | 6.94
CCCCCCCCCCCCCCN(CCCCCC(=O)OCCCCCCC)CCC1CCN(C(=O)CN(CCCCCCCCC)CCN(CCCCCCCCC)CCCCCCCCC)C1 (stereo not shown) | pKa | 6.89
CCCCCCCCCCCCN(CCCOC(=O)CCCCCCC)CC(=O)N1CCN(C(=O)CN(CCCCCCCCC)CCN(CCCCCCCCC)CCCCCCCCC)CC1 | pKa | 6.90
CCCCCCCCCN(CCCCCCCCC)CCN(CCCCCCCCC)CC(=O)N1CCC(CCOC(=O)CN(CCCCCCCCC)CCCCCCCCC)CC1 | pKa | 6.64
CCCCCCCCCN(CCCOC(=O)CC(C)CCC)CCC1CCN(C(=O)CN(CCCCCCCCC)CCN(CCCCCCCCC)CCCCCCCCC)CC1 (stereo not shown) | pKa | 6.58
CCCCC/C=C\CCN(CC/C=C\CCCCC)CCN(CC/C=C\CCCCC)CC(=O)N1CCN(C(=O)CN(CCCCCCCCC)CCCCCCCCC)CC1 | pKa | 6.13
CCCCCC/C=C\CC(=O)OCCCN(CCCCCCCCCCCCCC)CC(=O)N1CCN(C(=O)CN(CCCCCCCCC)CCN(CCCCCCCCC)CCCCCCCCC)CC1 | pKa | 6.93
CCCCCCCCCCCCCCN(CCCOC(=O)CCCCCCCCC)CCC1CCN(C(=O)CN(CCCCCCCCC)CCN(CCCCCCCCC)CCCCCCCCC)C1 (stereo not shown) | pKa | 6.76
CCCCCCCCCN(CCCCCCCCC)CCN(CCCCCCCCC)CC(=O)OC1CCC(OC(=O)CN(CCCCCCCCC)CCCCCCCCC)CC1 (stereo not shown) | pKa | 5.01
CCCCCCCCCN(CCCCCCCCC)CCN(CCCCCCCCC)CC(=O)N1CCN(C(=O)C(C)N(CCCCCCCCC)CCCC(=O)OCCCCC)CC1 (stereo not shown) | pKa | 6.82

---

The entries below are paired with their reported Size (nm).
test: Particle size and polydispersity index of nanoparticle compositions (Zetasizer Nano ZS); type: physicochemical; settings: Table 1c; nanoparticle compositions
VALUE_TYPE: Size (nm)

COMPOUND | VALUE_TYPE | ASSAY_VALUE
CCCCCCCCCN(CCCCCCCCC)CCN(CCCCCCCCC)CCOC(=O)C1CCN(C(=O)CN(CCCCCCCCC)CCCCCCCCC)CC1 | Size (nm) | 70.3
CCCCCCCCCCCCCCN(CCCCCCCCCCCC(=O)OC)CC(=O)N1CCN(C(=O)CN(CCCCCCCCC)CCN(CCCCCCCCC)CCCCCCCCC)CC1 | Size (nm) | 84.6
CCCCCCCCCCCCCCN(CCCOC(=O)CCCCCCCCC)CCC1CCN(C(=O)CN(CCCCCCCCC)CCN(CCCCCCCCC)CCCCCCCCC)CC1 | Size (nm) | 73.8
CCCCCCCCCN(CCCCCCCCC)CCN(CCCCCCCCC)CC(=O)N1CCN(C(=O)CN(CCCCCCCCC)CCCC(=O)SCCCCC)CC1 | Size (nm) | 82.1
CCCCCCCCCCCCN(CCCOC(=O)CCCCCCC)CC(=O)N1CCN(C(=O)CN(CCCCCCCCC)CCN(CCCCCCCCC)CCCCCCCCC)CC1 | Size (nm) | 81.1
CCCCCCCCCCCCCCN(CCCCCCCC(=O)OCCCCC)CC(=O)N1CCN(C(=O)CN(CCCCCCCCC)CCN(CCCCCCCCC)CCCCCCCCC)CC1 | Size (nm) | 81.5
CCCCCCCCCCCCCCN(CCCCCCCCCCCC(=O)OC)CCC1CCN(C(=O)CN(CCCCCCCCC)CCN(CCCCCCCCC)CCCCCCCCC)C1 (stereo not shown) | Size (nm) | 79.8
CCCCCCCCCCCCCCN(CCCOC(=O)CCCCCCCCC)CCC1CCCN(C(=O)CN(CCCCCCCCC)CCN(CCCCCCCCC)CCCCCCCCC)C1 (stereo not shown) | Size (nm) | 77.1
CCCCCCCCCCCCCCN(CCCCCC(=O)OCCCCCCC)CCC1CCN(C(=O)CN(CCCCCCCCC)CCN(CCCCCCCCC)CCCCCCCCC)CC1 | Size (nm) | 74.6
CCCCCCCCCN(CCCCCCCCC)CCN(CCCCCCCCC)CC(=O)N1CCN(C(=O)CN(CCCCCCCCC)CCCOC(=O)CC(C)CCC)CC1 (stereo not shown) | Size (nm) | 85.4
CCCCCCCCCCCC(=O)N1CCN(C(=O)CN(CCCCCCCCC)CCN(CCCCCCCCC)CCCCCCCCC)CC1 | Size (nm) | 93.7
CCCCCCCCCCCCCCN(CCCOC(=O)CCCCCCCCC)CCC1CCN(C(=O)CN(CCCCCCCCC)CCN(CCCCCCCCC)CCCCCCCCC)C1 (stereo not shown) | Size (nm) | 87.0
CCCCCCCCCN(CCCCCCCCC)CCN(CCCCCCCCC)CC(=O)N(C)CCN(C)C(=O)CN(CCCCCCCCC)CCCCCCCCC | Size (nm) | 77.4

---

PDI values, listed per item
test: Particle size and polydispersity index of nanoparticle compositions (Zetasizer Nano ZS); type: physicochemical; settings: Table 1c; nanoparticle compositions

MOLECULE | PDI
CCCCC/C=C\CCN(CC/C=C\CCCCC)CCN(CC/C=C\CCCCC)CC(=O)N1CCN(C(=O)CN(CCCCCCCCC)CCCCCCCCC)CC1 | 0.23
CCCCCCCCCN(CCCCCCCCC)CCN(CCCCCCCCC)CCOC(=O)C1CCN(C(=O)CN(CCCCCCCCC)CCCCCCCCC)CC1 | 0.24
CCCCCCCCCN(CCCCCCCCC)CCN(CCCCCCCCC)CC(=O)N1CCN(C(=O)CN(CCCCCCCCC)CC(C)COC(=O)CCCCC)CC1 (stereo not drawn) | 0.23
